test system: ApPKS KS-AT didomain; experiment: alpha-ketoglutarate dehydrogenase coupled NADH fluorescence; type: biochemical, Anas platyrhynchos; conditions: transacylation to ACP1 (AT site), corrected for ACP1 self-acylation; 50 mM sodium phosphate pH 7.6, 10% glycerol, 1 mM TCEP, 1 mM EDTA; read-out: Km (apparent)
Test readout: Km (µM)

Solved entries:
CC(C(=O)O)C(=O)SCCNC(=O)CCNC(=O)[C@H](O)C(C)(C)COP(=O)(O)OP(=O)(O)OC[C@H]1O[C@@H](n2cnc3c(N)ncnc32)[C@H](O)[C@@H]1OP(=O)(O)O (stereo partly shown) ... 245
CC(=O)SCCNC(=O)CCNC(=O)[C@H](O)C(C)(C)COP(=O)(O)OP(=O)(O)OC[C@H]1O[C@@H](n2cnc3c(N)ncnc32)[C@H](O)[C@@H]1OP(=O)(O)O ... 8.97

1 = CC(C)(COP(=O)(O)OP(=O)(O)OC[C@H]1O[C@@H](n2cnc3c(N)ncnc32)[C@H](O)[C@@H]1OP(=O)(O)O)[C@@H](O)C(=O)NCCC(=O)NCCSC(=O)CC(=O)O
2 = CCC(=O)SCCNC(=O)CCNC(=O)[C@H](O)C(C)(C)COP(=O)(O)OP(=O)(O)OC[C@H]1O[C@@H](n2cnc3c(N)ncnc32)[C@H](O)[C@@H]1OP(=O)(O)O
// which entry reports the smaller Km, 1 or 2 ? Please indicate the selected item by its label.
1

Attribution: paper PMC6334511
